Tested on: MDA-MB-231 breast
Assay info: NCI-60 one-dose screen, 48 h (100 = growth as untreated, 0 = no growth, -100 = all killed)
Assay context: 10 µM unless noted
About 83,000 compounds went through this panel and 20% of them were active in at least one assay; those are over-represented in the sample as a whole.
hey, just use Met if measured growth is less than 90%, otherwise Not met

Molecule	Class name
COc1ccc(Cn2cc(C(=O)N=Nc3c(O)[nH]c4ccc(Br)cc34)nn2)cc1	Not met
C=CC(=O)NCc1cccc(Nc2ncc(Br)c(NCCCNC(=O)C3CCC3)n2)c1	Met
CC(=O)/C(Br)=C/c1ccc(Br)o1	Not met
CCCc1cc(CCC)n2nc(N)nc2n1	Not met
CC(C)C(=O)Nc1ncc(C(=O)NCCN(Cc2ccccc2)C(=O)c2ccc(S(=O)(=O)Nc3ccccc3)cc2)s1	Not met
COc1ccc2c(c1)C(c1c[nH]c3ccccc13)(c1c[nH]c3ccccc13)CCO2	Met
Cc1ccc2nc(/C=C/c3ccc(N(C)C)cc3)cc(C)c2c1	Met
COc1cccc(C2C3=C(COC3=O)N(CCO)c3cc4c(cc32)OCCO4)c1 (stereo unspecified)	Met

Turning now to a further record.
[in] Please determine if Brc1ccc(-c2nn(-c3ccccc3)cc2-c2nn[nH]n2)s1 is below 90% in terms of growth.
[out] Met

----------
Test system: UACC-62 melanoma
Assay info: NCI-60 one-dose screen, 48 h
Assay context: 10 µM unless noted
About 83,000 compounds went through this panel and 20% of them were active in at least one assay; those are over-represented in the sample as a whole. Calls of active or inactive are those of the source. The calls were made as follows: active = growth percent below 10; inactive = the rest.
Result category, one only: YES for active, NO for inactive

Compound	Class name
Nc1ccc(Cl)c2c(=O)c3ccccc3[nH]c12	NO
CC(=O)OCC(=O)O[C@@H]1C[C@]2(C(C)C)O[C@@]1(C)[C@@H]1CC[C@@H](C)[C@H]1[C@@H]2OC(=O)/C=C/c1ccccc1	NO
Nc1c(C(=O)c2ccc(Cl)cc2)sc(Nc2ccccc2)c1-c1nc2ccccc2s1	YES

[in] What classification did O=S(=O)(Nc1ccc(Br)cc1)c1ccc(-c2cnc(C3CC3)o2)cc1 end up with in this test?
[out] NO

[in] Just curious, what result did CCOC(=O)/C=C1\S/C(=N\Nc2cc(=O)[nH]c3ccc(OC)cc23)N(c2ccccc2)C1=O get here?
[out] NO

[in] GET /call?item= CC1=C([Se]CC(OC(=O)[C@@H](CO)NC(=O)OC(C)(C)C)C(=O)NCCCCCC(=O)OCc2ccccc2)C(=O)c2ccccc2C1=O (some centres not stated) returns the recorded outcome of this test.
[out] YES

[in] Given COc1ccc(Cn2cc(C(=O)N=Nc3c(O)[nH]c4ccc(Br)cc34)nn2)cc1 , state the outcome it received in this test.
[out] NO

[in] Which result was noted for this compound in the test: COc1ccc(-c2cn(Cc3ccc4c(Br)cc(Br)c(O)c4n3)nn2)cc1
[out] NO

----------
Known growth of a selection of compounds
Tested on: IGROV1 ovarian
Assay info: NCI-60 one-dose screen, 48 h (100 = growth as untreated, 0 = no growth, -100 = all killed)
Assay context: 10 µM unless noted
This is part of a sample that, as a whole, favours compounds with a hit. Of some 83,000 tested, about 20% had one in any assay. Activity calls are given as the source filed them. How the source made its calls: active means growth percent below 10; inactive means the rest.

[in] Which growth value belongs to CN(C)CC1C(=O)O[C@H]2[C@H]1CC/C(COC(=O)NCc1ccc(Cn3c(=O)sn(CCCI)c3=O)cc1)=C\CC[C@@]1(C)O[C@@H]21 (stereo partly drawn) ?
[out] -81.8% (active)

[in] Entry CN1CCN(Cc2ccc(NC(=O)c3cncc(C#Cc4c(N)ncc5cc(F)ccc45)c3)cc2C(F)(F)F)CC1 has what growth?
[out] 15.1% (inactive)

[in] Recorded growth for O=C(Nc1cccc(Cl)c1)Oc1c(Cl)c(Cl)c(Cl)c(Cl)c1Cl , please?
[out] 87.8% (inactive)

[in] Query (compound): CCOC(=O)c1c(NC(=S)Nc2ccc([N+](=O)[O-])cc2)sc2c1CCCCC2 ; field requested: growth
[out] 89.7% (inactive)

[in] Given the entry COc1cc2c(c(OC)c1OC)CCC(c1cccc(NC(=O)c3cccc(Cl)c3)c1)O2 (stereo not drawn) , report its measured growth.
[out] 86.8% (inactive)

[in] Endpoint output: growth of CN1CCN(Cc2ccc(NC(=O)c3cncc(C#Cc4c(N)ncc5ccccc45)c3)cc2C(F)(F)F)CC1 . Value?
[out] -62% (active)

[in] What value of growth has been reported for the following compound? N#CC1=C(N)Oc2c(ccc3cccnc23)C1c1ccccc1 (stereo not drawn)
[out] 42.4% (inactive)

[in] Endpoint output: growth of CNC(=O)c1cc(Oc2cccc3nc(NC(=O)Nc4ccc(F)cc4F)ccc23)ccn1 . Value?
[out] 35% (inactive)

----------
Test system: OVCAR-5 ovarian
Assay info: NCI-60 one-dose screen, 48 h (100 = growth as untreated, 0 = no growth, -100 = all killed)
Assay context: 10 µM unless noted
About 83,000 compounds went through this panel and 20% of them were active in at least one assay; those are over-represented in the sample as a whole.
Measure: growth (%)
Please state the figure in %; there is no need to write the unit.

As a guide, the following entries are already answered.
Molecule	growth, %
COc1ccc(C2CC(=O)Oc3c(OC)c4c(c(OC)c32)OCO4)cc1 (stereo not given)	92.2
CN(C)c1ccc(Cc2cc(-c3ccccc3)nn(C/C(=N/O)c3ccccc3)c2=O)cc1	89.7
C(CCCSC1=NCCN1)CCSC1=NCCN1	89.8
O=C(N/N=C/c1ccccc1Cl)c1ccccc1Nc1ccnc(C(F)(F)F)c1	6.58
O=c1c(/C=C/c2c(O)ccc3ccccc23)nnc2sc(-c3cccc([N+](=O)[O-])c3)nn12	82.1
CC(=O)O[C@H]1C[C@@]2(C)[C@@H](C[C@@H](O)[C@H]3[C@@]4(C)CC[C@H](N5CCCC5)[C@@H](C)[C@@H]4CC[C@@]32C)/C1=C(\CCC=C(C)C)C(=O)O	102

We next turn to a different molecule, shown below.
[in] So what does the record say about growth for CNC(=O)c1cc(Oc2ccc3nc(NC(=O)c4cc(C(F)(F)F)cc(C(F)(F)F)c4)sc3c2)ccn1 ?
[out] 51.6

----------
Tested on: NCI-H522 lung
Assay info: NCI-60 one-dose screen, 48 h (100 = growth as untreated, 0 = no growth, -100 = all killed)
Assay context: 10 µM unless noted
About 83,000 compounds went through this panel and 20% of them were active in at least one assay; those are over-represented in the sample as a whole.
Measure: growth (%)
Reply numerically in %, unit not repeated.

Example cases with answers are listed next.
Compound	Unit abbrev	growth
O=C(/C=C/c1ccco1)c1ccc(Nc2ccnc3cc(Cl)ccc23)cc1	%	81.9
COc1cc(/C=C/c2cc(/C=C/c3ccc(O)c(OC)c3)n(C(=O)Nc3ccc(C)cc3C)n2)ccc1O	%	6.31
CCCCCN(CCCCC)CC(O)c1c(Cl)ccc2ccccc12 (stereo not drawn)	%	79

[in] Any idea what growth was measured for O=C(/C=C/c1ccc(Cl)cc1)c1ccc(Nc2ccnc3cc(Cl)ccc23)cc1 ?
[out] 88.3

[in] Fill blank: measured growth of the compound CN(C)c1ccc(/C=C/C2=[N+](C)c3ccccc3C2(C)C)cc1 is ____.
[out] 18.5

[in] // query growth value for entry Oc1ccc(Cc2ccc(O)c3ncccc23)c2cccnc12
[out] -10.8

[in] I would be grateful if you could share the reported growth for COC12C=C/C(=C(/C(=O)OCc3ccccn3)C(=O)CCCCCCCCC3(OC)C=C/C(=C(/C(=O)OCc4ccccn4)C(=O)CCCCCCCC1)O3)O2 .
[out] -12.9

[in] What growth value was documented for this compound, COC(=O)[C@H]1Cc2c([nH]c3ccccc23)[C@H](c2ccc3c(c2)OCO3)N1 ?
[out] 83.2

----------
Tested on: SR leukemia
Assay info: NCI-60 one-dose screen, 48 h (100 = growth as untreated, 0 = no growth, -100 = all killed)
Assay context: 10 µM unless noted
This is part of a sample that, as a whole, favours compounds with a hit. Of some 83,000 tested, about 20% had one in any assay.
One threshold, 10%, splits the recorded growth values: lower ones are fulfilled, equal or higher ones are not fulfilled.

Compound	Tested target	Class name
CC1=NN(c2cccc(Cl)c2)C(=O)/C1=C\C=C\c1ccccc1	SR leukemia	not fulfilled
COc1ccc(-c2cc(-c3ccc(N(C)C)cc3)nc(NC(=O)c3cccnc3)n2)cc1	SR leukemia	not fulfilled
O=C1CC2C=CCN2C=C1NC(=O)c1ccccc1 (stereo unspecified)	SR leukemia	not fulfilled

[in] Problem: For the compound CCCn1cnc2c(c1=N)C(c1ccc(Cl)cc1)c1sc3c(F)cccc3c1O2 (stereo unspecified) , is growth under 10%?
[out] not fulfilled

[in] Does this compound meet the criterion growth < 10%? C#CCOc1cccc(-c2ncnc3cc(NC(=O)CCl)ccc23)c1
[out] fulfilled

[in] Dear reviewer, please state whether O=C(CSc1nnc(-c2ccc(Cl)c(Cl)c2)n1-c1ccccc1)Nc1ccc(C(=O)/C=C/c2ccc(Cl)cc2)cc1 has growth strictly beneath 10%.
[out] not fulfilled
